Assay: logP (HCOOH)
Details: hplc, formic acid
Readout kind: chromatographic logP
One number for each entry.

Molecule	Quantitative readout
CCNC(=S)N1CCOC1=NC(C)c1cc2ccccc2o1 (stereo not drawn) [Beispiel 105]	4.18
CCC(N=C1OCCN1C(=S)NCCOC)c1cc(Br)cs1 (stereo not drawn) [Beispiel 30]	4.48
COCCNC(=S)N1CCOC1=N[C@@H](C)c1cccs1 [Beispiel 65]	3.38
CNC(=S)N1CCOC1=NCc1cccs1 [Beispiel 40]	2.45
COCCNC(=S)N1CCOC1=NCc1ccco1 [Beispiel 93]	2.84

Batch request: chromatographic logP for each of the following molecules.
1. CCC(N=C1OCCN1C(=S)NC)c1cccs1 (stereo not drawn) [Beispiel 86]
2. CCNC(=S)N1CCOC1=NC(CC)c1ccc(C(F)(F)F)cn1 (stereo not drawn) [Beispiel 7]
3. COCCNC(=S)N1CCOC1=NCc1ccsc1 [Beispiel 34]
4. CC(N=C1OCCN1C(=S)NCC(F)(F)F)c1cccs1 (stereo not drawn) [Beispiel 46]
5. CCC(N=C1OCCN1C(=O)NCCCl)c1ccc(C)c(C)n1 (stereo not drawn) [Beispiel 9]
6. CNC(=S)N1CCOC1=NCc1ccsc1 [Beispiel 35]
7. COCCNC(=S)N1CCOC1=NC(C)c1cc2ccccc2o1 (stereo not drawn) [Beispiel 106]
8. COCCNC(=S)N1CCOC1=NC(C)c1ccnc(Cl)c1 (stereo not drawn) [Beispiel 197]

1. 3.46
2. 3.85
3. 2.71
4. 3.99
5. 1.18
6. 1.83
7. 3.9
8. 2.83

For every listed record, write down its chromatographic logP.
1. CCNC(=S)N1CCO/C1=N/C(C)c1ccccn1 (stereo not drawn) [Beispiel 2]
2. CCNC(=S)N1CCOC1=N[C@@H](C)c1cccs1 [Beispiel 64]
3. CCNC(=S)N1CCOC1=NC(C)c1ccncc1 (stereo not drawn) [Beispiel 18]
4. CCOC(=O)CNC(=S)N1CCOC1=NC(C)c1ccnc(Cl)c1 (stereo not drawn) [Beispiel 198]
5. C[C@H](N=C1OCCN1C(=S)NCC(F)(F)F)c1cccs1 [Beispiel 66]
6. CCNC(=S)N1CCOC1=NC(CC)c1cccs1 (stereo not drawn) [Beispiel 87]
7. CCNC(=S)N1CCOC1=NC(C)c1ccnc(Cl)c1 (stereo not drawn) [Beispiel 196]

1: 1.26; 2: 3.59; 3: 1.07; 4: 3.14; 5: 3.98; 6: 4.06; 7: 3.07

For this molecule ( CCNC(=S)N1CCOC1=NC(CC)c1ccc(Cl)s1 (stereo not drawn) [Beispiel 108] ), measured chromatographic logP is 4.96
